# targetUnderTest: T1, Human TIM-3 Human Fc tagged protein (human, fluorescently labeled with HiLyte Fluor 555 (sites not given))
# T1 construct: Bought construct; also called TIM-3 protein tagged with human Fc; ACROBiosystems catalog no: TM3-H5258
# assayComment: capture slide probed with labeled TIM-3-Fc;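 note: IgG from single CD138-enriched plasma cells, isolated from lymphocytes, immobilized on a derivatized glass slide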

binder: SCT-Fa190 (antibody, V domains shown, murine IgG) VH: QVQLRQPGAELVMPGASVKLSCKASGYTFNTYWMHWVKQRPGQGLEWIGEIDPSDSYTNYNQNFKGKATLTVDKSSSTAYLQLSSLTSEDSAVYYCARNYGSNYVGYFDYWGQGTTLTVSS VL: DIQMTQTTSSLSASLGDRVTISCRASQDISNYLNWYQQKPDGTVKLLIYYTSRLPSGVPSSFSGSGSGTDYSLTISNLEQEDIATYFCQQAKALPWTFGGGTKLEIK
binding result: binds
--
binder: SCT-Fa018 (antibody, V domains shown, murine IgG) VH: EVKLVESEGGLVQPGSSMKLSCTASGFTFSDYYMAWVRQVPEKGLEWVANINFDGSSSYYLDSLKSRFIISRDNTKNILYLQMSSLKSEDTATYYCARLYDGYYAYWGQGTTLTVSS VL: DVVMTQTPLSLPVSLGDQASISCRSSQSLIHSNGNTYLYWYLQKPGQSPTLLIYKVSNRFSGVPDRFSGSGSGTDFTLKISRVEAEDLGVYFCSQSTHVPLTFGAGSKLELK
binding result: binds
